EC50 listing for selected molecules.
# tested on: UniProtKB Q96LB1
# Sequence (Q96LB1 whole entry): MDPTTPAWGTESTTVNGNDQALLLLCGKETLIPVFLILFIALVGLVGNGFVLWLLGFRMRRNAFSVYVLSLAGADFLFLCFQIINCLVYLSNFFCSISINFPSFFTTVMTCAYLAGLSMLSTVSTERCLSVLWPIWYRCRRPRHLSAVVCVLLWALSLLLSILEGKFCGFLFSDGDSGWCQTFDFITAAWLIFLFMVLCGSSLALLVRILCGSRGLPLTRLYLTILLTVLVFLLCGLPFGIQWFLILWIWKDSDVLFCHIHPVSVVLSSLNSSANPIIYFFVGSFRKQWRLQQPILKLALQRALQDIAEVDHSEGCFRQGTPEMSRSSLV
# assay text: Functional assay measuring intracellular calcium mobilisation (FLIPR)
# protocol conditions: Preliminary EC50 data for receptor MRGX2; transiently transfected cells, Fluo3 calcium response
Where a SMILES comes first, the peptide text is derived from it. Bridges are numbered along the chain shown (N, C = ends). [ ]: non-standard residue; d: D form. dTrp(2-Me) = Cc1[nH]c2ccccc2c1C[C@@H](N)C(=O)O; d2Nal = N[C@H](Cc1ccc2ccccc2c1)C(=O)O
measured endpoint: EC50

CC[C@H](C)[C@H](NC(=O)[C@H](CCCNC(=N)N)NC(=O)[C@H](CCCNC(=N)N)NC(=O)[C@H](CC(C)C)NC(=O)[C@H](Cc1ccccc1)NC(=O)CNC(=O)CNC(=O)[C@@H](N)Cc1ccc(O)cc1)C(=O)N[C@@H](CCCNC(=N)N)C(=O)N1CCC[C@H]1C(=O)N[C@@H](CCCCN)C(=O)N[C@@H](CC(C)C)C(=O)N[C@@H](CCCCN)C(=O)N[C@@H](Cc1c[nH]c2ccccc12)C(=O)N[C@@H](CC(=O)O)C(=O)N[C@@H](CC(N)=O)C(=O)N[C@@H](CCC(N)=O)C(=O)O [Dynorphin A]: 1.85 µM
C[C@@H](O)[C@@H]1NC(=O)[C@H](CCCCN)NC(=O)[C@@H](Cc2c[nH]c3ccccc23)NC(=O)[C@H](Cc2ccccc2)NC(=O)[C@@H](NC(=O)[C@H](N)Cc2ccccc2)CSSC[C@@H](C(=O)N[C@H](CO)[C@@H](C)O)NC1=O [Octreotide]: > 10 µM
CC(C)C[C@H](NC(=O)CNC(=O)[C@H](CCC(=O)O)NC(=O)CNC(=O)[C@H](C)N)C(=O)N[C@@H](CC(N)=O)C(=O)N[C@@H](CO)C(=O)N[C@@H](CCC(N)=O)C(=O)N[C@@H](Cc1ccccc1)C(=O)N[C@@H](Cc1c[nH]c2ccccc12)C(=O)N[C@@H](CO)C(=O)N[C@@H](CC(C)C)C(=O)N[C@@H](C)C(=O)N[C@@H](C)C(=O)N1CCC[C@H]1C(=O)N[C@@H](CCC(N)=O)C(=O)N[C@@H](CCCNC(=N)N)C(=O)N[C@@H](Cc1ccccc1)C(N)=O [NPAF] (H-AGEGLNSQFWSLAAPQRF-NH2; N-terminus assumed): > 10 µM
Cc1[nH]c2ccccc2c1C[C@@H](NC(=O)[C@@H](N)Cc1cnc[nH]1)C(=O)N[C@@H](C)C(=O)N[C@@H](Cc1c[nH]c2ccccc12)C(=O)N[C@H](Cc1ccccc1)C(=O)N[C@@H](CCCCN)C(N)=O [Hexarelin] (H-H[dTrp(2-Me)]AW[dF]K-NH2): 9.5 µM
CC(C)C[C@H](NC(=O)[C@@H](N)CO)C(=O)N[C@@H](C)C(=O)N[C@@H](C)C(=O)N1CCC[C@H]1C(=O)N[C@@H](CCC(N)=O)C(=O)N[C@@H](CCCNC(=N)N)C(=O)N[C@@H](Cc1ccccc1)C(N)=O [NPSF] (H-SLAAPQRF-NH2): > 10 µM
CC(=O)N[C@H]1CSSC[C@@H](C(=O)N2CCC[C@H]2C(=O)N2CCC[C@H]2C(=O)N[C@@H](CCCCN)C(=O)N[C@@H](CC(=O)O)C(N)=O)NC(=O)CNC(=O)[C@H](Cc2c[nH]c3ccccc23)NC(=O)[C@H](CCCNC(=N)N)NC(=O)[C@@H](Cc2ccc3ccccc3c2)NC(=O)[C@H](Cc2c[nH]cn2)NC(=O)[C@H](CCC(=O)O)NC1=O [HS014] (Ac-CEH[d2Nal]RWGCPPKD-NH2; disulfide 1-8; N-terminus and C-terminus assumed): > 10 µM
